Exercise: for every item that follows, state its recorded MIC80.
- System: Candida albicans
- assay.notes: Antifungal activity against FCZ-resistant Candida albicans 10231 assessed as growth inhibition measured after 48 hrs incubation by CLSI based micro-dilution broth method
- Format: functional
Supply the numeric figure in µg/mL, leaving out any unit text.

The compound listed as O=[N+]([O-])c1ccc(O)c(/C=N/Nc2nc(NCc3ccc(F)cc3)nc(NCc3ccco3)n2)c1 shows MIC80 equal to 8

The compound listed as O=[N+]([O-])c1cccc(/C=N/Nc2nc(NCc3ccc(F)cc3)nc(NCc3ccc(F)cc3)n2)c1O shows MIC80 equal to 32

The compound listed as COc1ccc(Nc2nc(NCc3ccco3)nc(N/N=C/c3cc([N+](=O)[O-])ccc3O)n2)cc1 shows MIC80 equal to 8

The compound listed as OC(Cn1cncn1)(Cn1cncn1)c1ccc(F)cc1F shows MIC80 equal to 64

The compound listed as O=[N+]([O-])c1ccc(O)c(/C=N/Nc2nc(NCc3ccccc3)nc(NCc3ccc(F)cc3)n2)c1 shows MIC80 equal to 8

The compound listed as O=[N+]([O-])c1ccc(O)c(/C=N/Nc2nc(NCc3ccc(F)cc3)nc(NCC3CCCCC3)n2)c1 shows MIC80 equal to 16

The compound listed as COc1ccc(Nc2nc(N/N=C/c3cc([N+](=O)[O-])ccc3O)nc(Nc3ccc(OC)cc3)n2)cc1 shows MIC80 equal to 16

The compound listed as O=[N+]([O-])c1ccc(O)c(/C=N/Nc2nc(NCc3ccc(F)cc3)nc(Nc3ccc(F)cc3)n2)c1 shows MIC80 equal to 8

The compound listed as O=[N+]([O-])c1ccc(O)c(/C=N/Nc2nc(NCc3ccc(F)cc3)nc(NCc3ccc(F)cc3)n2)c1 shows MIC80 equal to 16

The compound listed as O=[N+]([O-])c1ccc(O)c(/C=N/Nc2nc(NCc3ccc(F)cc3)nc(N3CCOCC3)n2)c1 shows MIC80 equal to 16

The compound listed as NCCOCCOCCNC(=O)Cc1ccc(Nc2nc(NCc3ccc(F)cc3)nc(NCC3CCCCC3)n2)cc1 shows MIC80 equal to 32

The compound listed as O=[N+]([O-])c1ccc(O)c(/C=N/Nc2nc(NCc3ccco3)nc(NCc3ccco3)n2)c1 shows MIC80 equal to 8

The compound listed as COc1ccc(Nc2nc(NCc3ccc(F)cc3)nc(N/N=C/c3cc([N+](=O)[O-])ccc3O)n2)cc1 shows MIC80 equal to 16

###

- assay.notes: Hemolytic activity in rabbit Red blood cell assessed as hemolysis rate at 8 microg/ml incubated for 1 hr
- Assay type: toxicity, cell-based, Oryctolagus cuniculus, Erythrocyte
- experimental.context: red blood cells, at 8 µg/mL, read-out: Activity
measured.attribute: hemolysis at 1 h, 8 microg/ml (%)
Supply the numeric figure in %, leaving out any unit text.

The compound listed as C[C@@H]1[C@H](O)[C@@H](C)/C=C/C=C/C=C/C=C/C=C/C=C/C=C/[C@H](O[C@@H]2O[C@H](C)[C@@H](O)[C@H](N)[C@@H]2O)C[C@@H]2O[C@](O)(C[C@@H](O)C[C@@H](O)[C@H](O)CC[C@@H](O)C[C@@H](O)CC(=O)O[C@H]1C)C[C@H](O)[C@H]2C(=O)O [AMPHOTERICIN B] shows hemolysis at 1 h, 8 microg/ml equal to 50.7
